# targetOfAssay: ACE2 (Homo sapiens), Q9BYF1
# Sequence (Q9BYF1 18-740): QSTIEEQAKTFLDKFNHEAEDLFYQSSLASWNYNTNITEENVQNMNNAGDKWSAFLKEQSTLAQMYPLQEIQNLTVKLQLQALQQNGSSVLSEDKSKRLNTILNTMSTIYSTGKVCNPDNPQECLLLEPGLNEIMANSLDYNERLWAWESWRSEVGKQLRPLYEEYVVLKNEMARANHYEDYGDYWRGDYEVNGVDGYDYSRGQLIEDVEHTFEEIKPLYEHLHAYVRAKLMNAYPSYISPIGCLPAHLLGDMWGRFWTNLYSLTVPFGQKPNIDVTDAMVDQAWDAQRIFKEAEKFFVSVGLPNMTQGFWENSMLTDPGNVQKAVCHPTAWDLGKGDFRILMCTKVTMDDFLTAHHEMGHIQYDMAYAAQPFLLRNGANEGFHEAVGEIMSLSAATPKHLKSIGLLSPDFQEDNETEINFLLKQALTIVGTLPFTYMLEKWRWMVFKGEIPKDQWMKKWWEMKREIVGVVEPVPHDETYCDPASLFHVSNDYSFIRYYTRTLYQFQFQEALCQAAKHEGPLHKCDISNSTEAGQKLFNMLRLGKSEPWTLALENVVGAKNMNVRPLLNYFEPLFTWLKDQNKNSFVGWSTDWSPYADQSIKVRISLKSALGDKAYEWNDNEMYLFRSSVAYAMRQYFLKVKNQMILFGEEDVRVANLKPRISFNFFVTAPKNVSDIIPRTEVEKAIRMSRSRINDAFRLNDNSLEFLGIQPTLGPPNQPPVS
# protocolText: NMR
# conditionDescription: modification not given
measure: pKd
Numbers only, as −log10 of the molar value.

Would you kindly share the measured pKd for YKYRYL [RBD-11b peptide] ?
4.22
